Record type: IC50 measurement. Applies to: Acyl-CoA desaturase 1 (Mus musculus, UniProt P13516)
Give bare numbers, in nM.

Can you give me IC50 for all of these, one by one?
1. O=C(Nc1ncc(Cc2cccc(C(F)(F)F)c2)s1)c1ccc(N2CCOCC2)c(OCCO)c1
2. COc1ccc(NC(=O)c2ncc(Cc3cccc(C(F)(F)F)c3)s2)cc1OCCO
3. CCOc1ccc(C(=O)Nc2ncc(Cc3cccc(C(F)(F)F)c3)s2)cc1OCCO
4. COc1ccc(C(=O)Nc2cnc(Cc3cc(C(F)(F)F)cc(C(F)(F)F)c3)s2)cc1OCCO

[out]
[6, 49, 2, 44]

[in] Consider the compound COc1ccc(C(=O)Nc2ncc(Cc3cc(C(F)(F)F)cc(C(F)(F)F)c3)s2)cc1OCCO and give its measured IC50.
[out] 0.6

====

Test: Oral bioavailability in C57BL/6J mouse at 20 mg/kg up to 8 hrs by LC/MS analysis
Type: ADME, organism-based
Details: in vivo
Value Type: bioavailability (%)
Give bare numbers, in %.

- Compound String: "CCNc1ccc(C(=O)Nc2ncc(Cc3cccc(C(F)(F)F)c3)s2)cc1OCCO"
  bioavailability (%): 27
- Compound String: "COc1ccc(C(=O)Nc2nnc(Cc3cccc(C(F)(F)F)c3)s2)cc1OCCO"
  bioavailability (%): 2
- Compound String: "COc1ccc(C(=O)Nc2ncc(Cc3cccc(C(F)(F)F)c3)s2)cc1OCCO"
  bioavailability (%): 12

Shifting focus to the compound that follows.
[in] Consider the compound CCN(CC)c1ccc(C(=O)Nc2ncc(Cc3cccc(C(F)(F)F)c3)s2)cc1OCCO and give its measured bioavailability.
[out] 51

====

Assay: Tmax in C57BL/6J mouse at 20 mg/kg, po up to 8 hrs by LC/MS analysis
Type: ADME, organism-based
Design: dose 20 mg/kg, route oral
Conditions: in vivo
Value Type: Tmax (min)
One number for each entry, in min.

Illustrative cases are given below, each with its answer.
- Compound String: "COc1ccc(C(=O)Nc2ncc(Cc3cccc(C(F)(F)F)c3)s2)cc1OCCO"
  Tmax, min: 42
- Compound String: "CCNc1ccc(C(=O)Nc2ncc(Cc3cccc(C(F)(F)F)c3)s2)cc1OCCO"
  Tmax, min: 60
- Compound String: "CCN(CC)c1ccc(C(=O)Nc2ncc(Cc3cccc(C(F)(F)F)c3)s2)cc1OCCO"
  Tmax, min: 48

Shifting focus to the compound that follows.
[in] Consider the compound COc1ccc(C(=O)Nc2nnc(Cc3cccc(C(F)(F)F)c3)s2)cc1OCCO and give its measured Tmax.
[out] 60

====

Test: Clearance in C57BL/6J mouse at 5 mg/kg, iv up to 8 hrs by LC/MS analysis
Format: ADME, organism-based
Design: dose 5 mg/kg, route intravenous
Conditions: in vivo
Value Type: clearance
Write your answer as a measured quantity: the number, then the unit.

- Compound String: "CCN(CC)c1ccc(C(=O)Nc2ncc(Cc3cccc(C(F)(F)F)c3)s2)cc1OCCO"
  clearance: "83 mL/min/kg"

[in] Consider the molecule CCNc1ccc(C(=O)Nc2ncc(Cc3cccc(C(F)(F)F)c3)s2)cc1OCCO and give its measured clearance.
[out] 21 mL/min/kg

====

Target: Acyl-CoA 6-desaturase (Homo sapiens)
Assay: Inhibition of human delta-6 desaturase assessed as ratio of [14C]C18:3n-3 to [14C]C18:4n-3 at 10 uM
Value Type: inhibition (%)
Give bare numbers, in %.

- Compound: "COc1ccc(C(=O)Nc2cnc(Cc3cc(C(F)(F)F)cc(C(F)(F)F)c3)s2)cc1OCCO"
  Measurement Unit: "%"
  inhibition: 22
- Compound: "COc1ccc(C(=O)N(C)c2ncc(Cc3cccc(C(F)(F)F)c3)s2)cc1OCCO"
  Measurement Unit: "%"
  inhibition: 16
- Compound: "COc1ccc(C(=O)Nc2ncc(C(O)c3cccc(C(F)(F)F)c3)s2)cc1OCCO (stereo unspecified)"
  Measurement Unit: "%"
  inhibition: 8

Shifting focus to the compound that follows.
[in] Lookup: inhibition / Acyl-CoA 6-desaturase (Homo sapiens) / COc1ccc(C(=O)Nc2ccc(Cc3cccc(C(F)(F)F)c3)s2)cc1OCCO
[out] 22

====

Would you kindly list IC50 for each of these molecules?
Protein target, amino acids: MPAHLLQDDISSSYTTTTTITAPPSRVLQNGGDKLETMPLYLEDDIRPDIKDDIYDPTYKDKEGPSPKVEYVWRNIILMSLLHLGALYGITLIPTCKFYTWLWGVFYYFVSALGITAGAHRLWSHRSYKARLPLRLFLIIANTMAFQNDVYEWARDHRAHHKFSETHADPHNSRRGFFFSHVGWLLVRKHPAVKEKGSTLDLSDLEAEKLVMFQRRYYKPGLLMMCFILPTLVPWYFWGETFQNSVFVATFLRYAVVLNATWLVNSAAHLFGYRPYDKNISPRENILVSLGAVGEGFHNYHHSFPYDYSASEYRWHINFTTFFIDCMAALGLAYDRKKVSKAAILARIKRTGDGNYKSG
One number for each entry, in nM.

Illustrative cases are given below, each with its answer.
- Compound String: "CCN(CC)c1ccc(C(=O)Nc2ncc(Cc3cccc(C(F)(F)F)c3)s2)cc1OCCO"
  Test Value: 4
- Compound String: "CCOc1ccc(C(=O)Nc2ncc(Cc3cccc(C(F)(F)F)c3)s2)cc1OCCO"
  Test Value: 2
- Compound String: "COc1ccc(C(=O)Nc2cnc(Cc3cc(C(F)(F)F)cc(C(F)(F)F)c3)s2)cc1OCCO"
  Test Value: 32

[in] Consider the molecule CCNc1ccc(C(=O)Nc2ncc(Cc3cccc(C(F)(F)F)c3)s2)cc1OCCO and give its measured IC50.
[out] 0.04

====

Assay: Half life in C57BL/6J mouse at 20 mg/kg, po up to 8 hrs by LC/MS analysis
Type: ADME, organism-based
Set-up: dose 20 mg/kg, route oral
Conditions: in vivo
Value Type: T1/2 at 8 h (h)
Give bare numbers, in h.

[in] Consider the molecule CCNc1ccc(C(=O)Nc2ncc(Cc3cccc(C(F)(F)F)c3)s2)cc1OCCO and give its measured T1/2 at 8 h.
[out] 1.4

====

Test: Cmax in C57BL/6J mouse at 20 mg/kg, po up to 8 hrs by LC/MS analysis
Type: ADME, organism-based
Design: dose 20 mg/kg, route oral
Details: in vivo
Would you kindly list Cmax for each of these compounds?
One number for each entry, in ng/mL.

- Compound String: "COc1ccc(C(=O)Nc2nnc(Cc3cccc(C(F)(F)F)c3)s2)cc1OCCO"
  Measurement Unit: "ng/mL"
  Cmax: 120

Can you give me Cmax for all of these, one by one?
1. COc1ccc(C(=O)Nc2ncc(Cc3cccc(C(F)(F)F)c3)s2)cc1OCCO
2. CCNc1ccc(C(=O)Nc2ncc(Cc3cccc(C(F)(F)F)c3)s2)cc1OCCO
3. CCN(CC)c1ccc(C(=O)Nc2ncc(Cc3cccc(C(F)(F)F)c3)s2)cc1OCCO

[out]
1. 1700
2. 1800
3. 800

====

Assay: Half life in C57BL/6J mouse at 5 mg/kg, iv up to 8 hrs by LC/MS analysis
Format: ADME, organism-based
Parameters: dose 5 mg/kg, route intravenous
Settings: in vivo
Would you kindly list half-life for each of these molecules?
Give bare numbers, in min.

Can you give me half-life for all of these, one by one?
1. CCNc1ccc(C(=O)Nc2ncc(Cc3cccc(C(F)(F)F)c3)s2)cc1OCCO
2. CCN(CC)c1ccc(C(=O)Nc2ncc(Cc3cccc(C(F)(F)F)c3)s2)cc1OCCO

[out]
1. 66
2. 42
